Molecular target: Mu-type opioid receptor (Rattus norvegicus)
Sequence (P33535 whole entry): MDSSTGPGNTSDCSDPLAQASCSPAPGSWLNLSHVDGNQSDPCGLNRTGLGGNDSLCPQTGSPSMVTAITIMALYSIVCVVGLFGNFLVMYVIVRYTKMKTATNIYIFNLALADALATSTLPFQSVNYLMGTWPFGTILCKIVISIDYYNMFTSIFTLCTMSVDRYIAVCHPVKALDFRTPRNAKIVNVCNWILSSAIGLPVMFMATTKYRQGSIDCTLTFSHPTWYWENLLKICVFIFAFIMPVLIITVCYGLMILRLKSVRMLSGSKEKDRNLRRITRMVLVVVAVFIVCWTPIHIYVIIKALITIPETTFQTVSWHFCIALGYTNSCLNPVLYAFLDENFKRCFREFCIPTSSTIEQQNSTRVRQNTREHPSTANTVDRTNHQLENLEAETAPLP
pKi: −log10 of the molar value.
pKi below 9 gives NO; pKi at or above it gives YES.

Worked examples, 5 compounds total:
C[C@H]1CN(CCC2CCCC2)CC[C@@]1(C)c1cccc(O)c1
NO
CC(C)C(O)CCN1CC[C@@](C)(c2cccc(O)c2)[C@@H](C)C1 (some centres not stated)
NO
C=C(C)CCCN1CC[C@@](C)(c2cccc(O)c2)[C@@H](C)C1
YES
CC(C)CCCN1CC[C@@](C)(c2cccc(O)c2)[C@@H](C)C1
YES
C[C@H]1CN(CCCC2CCCC2)CC[C@@]1(C)c1cccc(O)c1
YES

## Task Check if pKi >= 9 (inclusive). Item: `CCCCCCN1CC[C@](C)(c2cccc(O)c2)[C@H](C)C1`
## Result NO

## Task Check if pKi >= 9 (inclusive). Item: `C[C@H]1CN(CCC(=O)C2CCCCC2)CC[C@@]1(C)c1cccc(O)c1`
## Result YES

## Task Check if pKi >= 9 (inclusive). Item: `C[C@H]1CN(CCCC2CCCCC2)CC[C@@]1(C)c1cccc(O)c1`
## Result YES

## Task Check if pKi >= 9 (inclusive). Item: `C=C1CC[C@@]2(O)[C@H]3Cc4ccc(O)c5c4[C@@]2(CCN3CC2CC2)[C@H]1O5`
## Result YES

## Task Check if pKi >= 9 (inclusive). Item: `C[C@H]1CN(CC2CCCCC2)CC[C@@]1(C)c1cccc(O)c1`
## Result NO
